Tested On: nuclear factor-kappa B (NF-kB)-inducing kinase (NIK) (Homo sapiens (Human), UniProt Q99558)
Sequence (Q99558 whole entry): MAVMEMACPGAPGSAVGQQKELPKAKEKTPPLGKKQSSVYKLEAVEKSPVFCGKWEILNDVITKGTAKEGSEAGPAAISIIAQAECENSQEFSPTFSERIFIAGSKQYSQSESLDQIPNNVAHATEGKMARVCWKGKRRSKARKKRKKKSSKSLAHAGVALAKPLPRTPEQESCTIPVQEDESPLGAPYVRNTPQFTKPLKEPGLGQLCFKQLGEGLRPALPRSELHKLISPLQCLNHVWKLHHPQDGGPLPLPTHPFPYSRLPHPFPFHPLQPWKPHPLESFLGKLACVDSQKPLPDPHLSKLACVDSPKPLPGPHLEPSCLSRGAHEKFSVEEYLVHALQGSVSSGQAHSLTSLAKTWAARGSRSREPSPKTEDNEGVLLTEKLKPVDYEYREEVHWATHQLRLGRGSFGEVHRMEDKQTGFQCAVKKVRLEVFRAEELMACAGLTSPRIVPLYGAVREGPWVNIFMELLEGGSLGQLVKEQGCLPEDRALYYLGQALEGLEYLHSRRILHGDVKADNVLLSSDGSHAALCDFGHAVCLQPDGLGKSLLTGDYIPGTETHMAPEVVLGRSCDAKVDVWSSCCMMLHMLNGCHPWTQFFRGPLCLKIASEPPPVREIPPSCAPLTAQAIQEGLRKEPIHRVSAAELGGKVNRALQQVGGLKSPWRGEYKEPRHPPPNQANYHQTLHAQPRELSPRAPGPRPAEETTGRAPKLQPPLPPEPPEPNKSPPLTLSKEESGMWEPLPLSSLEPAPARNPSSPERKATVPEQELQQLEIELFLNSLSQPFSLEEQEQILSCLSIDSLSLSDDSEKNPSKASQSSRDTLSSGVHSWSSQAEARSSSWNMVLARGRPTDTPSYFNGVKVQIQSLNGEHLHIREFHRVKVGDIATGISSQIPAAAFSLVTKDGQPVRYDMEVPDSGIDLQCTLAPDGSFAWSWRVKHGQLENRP
Experiment Summary: NIK enzyme inhibition assay (Transcreener ADP, NIK ADP-FP)
Assay type: biochemical
Measurement Parameters: purified NIK 0.5 nM, 10 μM ATP, fluorescence polarization; read-out: NIK ADP-FP (Ki μM)
Metric Name: log10 of Ki (log10 of the value in nM)

| Compound | Metric Name | Observed Measurement |
| --- | --- | --- |
| CN1CC[C@@](O)(C#Cc2cccc(-n3nc(C(N)=O)c4c3CCC[C@@H]4NC(=O)C3CC3)c2)C1=O [Compound 37] | log10 of Ki | 2.29 |
| CN1CC[C@@](O)(C#Cc2cccc(-n3nc(C(N)=O)c4c3CCN(c3ncccn3)C4)c2)C1=O [Compound 121] | log10 of Ki | 0.02 |
| CN1CC[C@@](O)(C#Cc2cccc(-c3nc(C(N)=O)n4ccc(CN5CCOCC5)cc34)c2)C1=O [Compound 99] | log10 of Ki | 0.18 |
| COc1ccc2c(C(N)=O)nn(-c3cccc(C#C[C@]4(O)CCN(C)C4=O)c3)c2n1 [Compound 154] | log10 of Ki | -1.30 |
| COc1ccn2c(C(N)=O)nc(-c3cccc(C#C[C@]4(O)CCN(C)C4=O)c3)c2c1 [Compound 97] | log10 of Ki | -1.30 |
| CN1CC[C@@](O)(C#Cc2cccc(-n3nc(C(N)=O)c4ccnnc43)c2)C1=O [Compound 174] | log10 of Ki | -0.89 |
| NC(=O)c1nn(-c2cc(C#C[C@]3(O)CCNC3=O)ccn2)c2cc(F)ccc12 [Compound 71] | log10 of Ki | -0.19 |
| CN1CC[C@@](O)(C#Cc2ccnc(-n3nc(C(N)=O)c4c3CCC[C@H]4NC(=O)C3CC3)c2)C1=O [Compound 15] | log10 of Ki | 2.58 |
| CNC(=O)c1ccc2c(c1)c(C(N)=O)nn2-c1cccc(C#C[C@]2(O)CCN(C)C2=O)c1 [Compound 112] | log10 of Ki | -1.10 |
| C[C@](O)(C#Cc1cccc(-n2nc(C(N)=O)c3ccccc32)c1)c1c[nH]nn1 [Compound 118] | log10 of Ki | 1.22 |
| Cc1sc(-c2cc(C#C[C@]3(O)CCN(C)C3=O)ccc2F)nc1C(N)=O [Compound 197] | log10 of Ki | -1.28 |
| Cc1ccc2c(C(N)=O)nn(-c3cccc(C#C[C@]4(O)CCN(C)C4=O)c3)c2n1 [Compound 175] | log10 of Ki | -1.30 |
| CN1CC[C@@](O)(C#Cc2ccnc(-n3nc(C(N)=O)c4c3C[C@H](O)CC4)c2)C1=O [Compound 61] | log10 of Ki | 0.65 |
| CN1CC[C@@](O)(C#Cc2ccc(F)c(-n3nc(C(N)=O)c4c3CCC4)c2)C1=O [Compound 145] | log10 of Ki | 0.09 |
| CN1CC[C@@](O)(C#Cc2cccc(-n3nc(C(N)=O)c4c3C[C@@]3(C)C(C4)C3(F)F)c2)C1=O (stereo partly shown) [Compound 47] | log10 of Ki | 1.35 |
| COc1cc2c(cn1)c(C(N)=O)nn2-c1cccc(C#C[C@]2(O)CCN(C)C2=O)c1 [Compound 140] | log10 of Ki | -1.30 |
| CN1CC[C@@](O)(C#Cc2cccc(-n3nc(C(N)=O)c4ccncc43)c2)C1=O [Compound 148] | log10 of Ki | -0.42 |
| Cc1nc([C@](C)(O)C#Cc2cccc(-n3nc(C(N)=O)c4ccccc43)c2)no1 [Compound 29] | log10 of Ki | 1.56 |
| CN1CC[C@@](O)(C#Cc2cccc(-n3nc(C(N)=O)c4c3CCC[C@@H]4n3cccn3)c2)C1=O [Compound 38] | log10 of Ki | 1.00 |
| CN1CC[C@@](O)(C#Cc2ccnc(-n3nc(C(N)=O)c4c3CC(C)(C)[C@H](OCc3ccccc3)C4)c2)C1=O [Compound 8] | log10 of Ki | 1.86 |
| CN(C)C(=O)c1ccc2c(c1)c(C(N)=O)nn2-c1cccc(C#C[C@]2(O)CCN(C)C2=O)c1 [Compound 184] | log10 of Ki | 2.01 |
| CN1CC[C@@](O)(C#Cc2cc(-n3nc(C(N)=O)c4cccnc43)ccc2F)C1=O [Compound 31] | log10 of Ki | -0.21 |
| CN1CC[C@@](O)(C#Cc2cccc(-n3nc(C(N)=O)c4cnc(C5CC5)nc43)c2)C1=O [Compound 158] | log10 of Ki | -0.64 |
| Cc1nnc([C@](C)(O)C#Cc2cccc(-n3nc(C(N)=O)c4cccnc43)c2)o1 [Compound 67] | log10 of Ki | 0.50 |
| COc1ccc2c(c1)c(C(N)=O)nn2-c1cc(C#C[C@]2(O)CCN(C)C2=O)ccn1 [Compound 65] | log10 of Ki | -1.30 |
| CN1CC[C@@](O)(C#Cc2cccc(-n3nc(C(N)=O)c4c3COC4)c2)C1=O [Compound 146] | log10 of Ki | 0.25 |
| CN1CC[C@@](O)(C#Cc2cccc(-c3nc(C(N)=O)n4cc(CN5CCOCC5)ccc34)c2)C1=O [Compound 100] | log10 of Ki | 0.22 |
| CCCC(=O)N(C)Cc1ccc2c(c1)c(C(N)=O)nn2-c1cc(C#C[C@]2(O)CCN(C)C2=O)ccn1 [Compound 142] | log10 of Ki | 0.23 |
| CN1CC[C@@](O)(C#Cc2cc(-n3nc(C(N)=O)c4c3CCCC4)ccc2C#N)C1=O [Compound 167] | log10 of Ki | 0.29 |
| CN1CC[C@@](O)(C#Cc2cccc(-n3nc(C(N)=O)c4cnc(C(F)(F)F)nc43)c2)C1=O [Compound 159] | log10 of Ki | 0.85 |
| NC(=O)c1nn(-c2cc(C#C[C@]3(O)CCc4cccnc43)ccn2)c2cc(F)ccc12 [Compound 72] | log10 of Ki | -0.85 |
